Biological target: orexin-2 receptor (hOX2R) (Homo sapiens)
Construct: expressed in transfected cells; host or cells: Chinese hamster ovary (CHO) cells
Sequence (O43614 1-444): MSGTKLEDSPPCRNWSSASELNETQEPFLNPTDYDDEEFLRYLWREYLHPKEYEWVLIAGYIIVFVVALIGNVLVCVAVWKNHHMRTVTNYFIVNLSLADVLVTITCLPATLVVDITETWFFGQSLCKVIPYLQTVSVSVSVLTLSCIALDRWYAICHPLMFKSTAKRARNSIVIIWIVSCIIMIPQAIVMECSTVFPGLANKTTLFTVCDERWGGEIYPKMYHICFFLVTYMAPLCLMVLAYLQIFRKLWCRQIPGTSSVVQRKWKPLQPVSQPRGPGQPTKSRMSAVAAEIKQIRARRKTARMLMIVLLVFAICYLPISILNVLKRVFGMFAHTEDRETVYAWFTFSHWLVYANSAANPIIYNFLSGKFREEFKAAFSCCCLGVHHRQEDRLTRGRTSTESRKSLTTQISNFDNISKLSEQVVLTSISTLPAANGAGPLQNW
Test: Orexin antagonistic activity assay (intracellular Ca2+, FDSS) in CHO cells expressing hOX2R
Assay type: cell-based
Readout Type: IC50 (nM)
Write the number in nM without appending the unit.

Given Cc1ccc(-n2nccn2)c(C(=O)N2C[C@H](c3nc4cc(Cl)ccc4o3)CC[C@H]2C)c1 (single isomer, unassigned) , respond with its IC50.
1.8

Attribution: patent US20140228377A1
